For each entry below, report its binding signal value.
# Target system: TDP-43 (Homo sapiens, UniProt Q13148 1-414)
# Sequence (Q13148 whole entry): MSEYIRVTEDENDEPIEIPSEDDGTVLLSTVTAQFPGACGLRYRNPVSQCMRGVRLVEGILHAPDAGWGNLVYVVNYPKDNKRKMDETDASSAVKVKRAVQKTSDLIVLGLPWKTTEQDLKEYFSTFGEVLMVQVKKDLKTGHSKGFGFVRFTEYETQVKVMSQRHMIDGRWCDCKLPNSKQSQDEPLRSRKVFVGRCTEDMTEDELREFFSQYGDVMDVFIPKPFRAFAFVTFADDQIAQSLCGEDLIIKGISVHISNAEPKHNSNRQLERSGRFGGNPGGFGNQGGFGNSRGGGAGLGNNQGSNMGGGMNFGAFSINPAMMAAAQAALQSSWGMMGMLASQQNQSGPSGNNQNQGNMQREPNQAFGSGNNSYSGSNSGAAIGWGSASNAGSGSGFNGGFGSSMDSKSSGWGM
# Assay details: RNA Bind-n-Seq with designed 260-mer pool; 25 mM Tris-HCl, 150 mM KCl, 3 mM MgCl2, BSA (printed 500 mg/mL), 20 units/mL SUPERase IN; pH not stated; 500 nM RNA pool, 1 h, 4 C; TDP-43 5, 50, 500 nM; high values mean tight binding
# Recorded conditions: protein: recombinant; tags: SBP (GST cleaved off with PreScission; pGEX-GST-SBP)
The full ranking holds about 9,900 sequences; the median of “r (bound/input frequency ratio)” is about 0.7, and the highest 2% start at about 6.5. The sample holds the highest values, similar sequences and a random draw of the others, so the mix is not that of the screen.

Looking up ENSMUSG00000004113.468|Cacna1b (ssRNA) RNA: GGGAGUUCUACAGUCCGACGAUCGCUUCGAUAUCCGCAUGCUAGCAAAAAUUUAUAUUUAACAGUGUUGAGAGAGAGAGAGAGAGAGCGAGAGAGAGAGAGAUCCAGUCAUGCAACACAAAUGGGAUCUACUUUUAAACAACAGUCCUUUGACUAGUUUGCUGCCUGAAUAAUAUUUACAAACUAAACUUUGGAUUCUGCUCUUGUUUCUACAAUGAUUUUUUGUAUAAAGCAAAGUCCUUGGAUUAAAUAAAAACAACCCAAAAAAAAAAUCAAAAUCAAAACCCAGGAUGCAACUGGGUGACUCUUGCGGUCGCACUAGUGUGGAAUUCUCGGGUGUCAAGG , I found its binding signal recorded as 0.308 R (bound/input frequency ratio)

Looking up ENSMUSG00000031028.589|Tub (ssRNA) RNA: GGGAGUUCUACAGUCCGACGAUCGCUUCGAUAUCCGCAUGCUAUUUCUUUCAGUUUAUGGCCACCUGCCCAAAUUGACUUCCAGCUUACAAUCUUCUGUCAUUUCAAGAUCGUAAGAAGUACUGGGAUGGGUUUGAGUUUUCAGCACAGAGGCGAGUUGAUCUAGGAGCAUACAACUGUACUGAGCAGCUAGAGCAUUUGAGCAACCCAUGUAAUCUUUGUGUUUCCCUCCCUGUAAGAAGGCCUGUCAGAGCUUGCUGUAGGAGUUAGGGUAAAUGAAAGUUAGUCCUGGCUCUCAUCACCACUCUUGCGGUCGCACUAGUGUGGAAUUCUCGGGUGUCAAGG , I found its binding signal recorded as 0.299 R (bound/input frequency ratio)

Looking up ENSMUSG00000028439.123|Fam219a|54:58 (ssRNA) RNA: GGGAGUUCUACAGUCCGACGAUCGCUUCGAUAUCCGCAUGCUACUGAGGGUUGGGAAGGUAAGAUGGGCCUUAGAGAGAAGCCAGGUUUGGGGAUGCAUACACCUGUUCUCACCGGUCUCUAACCAGUGCAUCUGUCUCUCUGCCUCAUCCCCACACCGCCCUGCCACCCCCAGUCUUCUGUCUAUUGGUUCCAGGCUGGAAGCAAGAGAUAAGGCUGGCCUCCUGUGCCCCAUUGCCAUUUCACCCUAGCUCAAAGUCCAGGAGCCAGGCUUCCAGAAAGGCUCUUCAAGAGCAAGCUUAAGCUCUUGCGGUCGCACUAGUGUGGAAUUCUCGGGUGUCAAGG , I found its binding signal recorded as 0.5 R (bound/input frequency ratio)

Looking up ENSMUSG00000061578.1429|Ksr2|169:173 (ssRNA) RNA: GGGAGUUCUACAGUCCGACGAUCGCUUCGAUAUCCGCAUGCUAAGAUCUGUCUUGCUCUCUGUCUCUCUCACUCAUUGCCAACAUGUUGCUGGGAAAGAAUAUUUGAUUUAGAUGCCAAUCAGGAAGGCAAGUAGGAUGGAUGGAUGAGUGAGUGGAUAGGUAGGUAUAUAAAUGGAUGGAUGGGUGAUGGAUGGGUAAAUGAAUGGAUAGCAUACUGAAUGAAUGGAUGAUGGAUGAAUGGAUGGGUAGGUGGGUAGAUAGGUAUAUGAAUGAAUGGAUGAAUGGAUGGGUGAAUGGAUGGACUCUUGCGGUCGCACUAGUGUGGAAUUCUCGGGUGUCAAGG , I found its binding signal recorded as 5.89 R (bound/input frequency ratio)

Source of measurements: paper PMC12864922
